Examples of compounds with documented IC50 ratio follow.
- procedure text: In vitro selectivity ratio of Bovine Heart PDE1 to human platelet PDE5 was determined

A selection of reference data follows.
CCCOc1ccc(C(N)=O)cc1-c1nc(O)c2cc3c(cc2n1)ncn3Cc1ccc(F)cc1 > 100000
CCCOc1ccc(S(=O)(=O)N2CCN(C)CC2)cc1-c1nc(O)c2cc3c(cc2n1)ncn3Cc1ccccc1 3400
CCCOc1ccc(S(=O)(=O)N2CCN(CC)CC2)cc1-c1nc(O)c2cc3c(cc2n1)ncn3Cc1ccc(F)cc1 > 10000
CCCOc1ccc(S(=O)(=O)N2CC[C@@H](N(C)C)C2)cc1-c1nc2cc3ncn(Cc4ccc(F)cc4)c3cc2c(=O)[nH]1 > 10000
CCCOc1ccc(S(=O)(=O)N2CCN(CC)CC2)cc1-c1nc(O)c2cc3c(cc2n1)ncn3Cc1ccccc1 > 10000

Query compound follows.
Measured IC50 ratio of CCCOc1ccc(S(=O)(=O)N2CCN(CC)CC2)cc1-c1nc(O)c2cc3c(cc2n1)ncn3Cc1cccc(OC)c1 : > 10000

* * *

- procedure text: In vitro selectivity ratio of PDE6 of Bovine retina to human platelet PDE5 was determined
parameter measured: IC50 ratio
Form field (numeric): enter value without unit.

A selection of reference data follows.
CCCOc1ccc(C(N)=O)cc1-c1nc(O)c2cc3c(cc2n1)ncn3Cc1ccc(F)cc1 60
CCCOc1ccc(S(=O)(=O)N2CCN(CC)CC2)cc1-c1nc(O)c2cc3c(cc2n1)ncn3Cc1ccccc1Cl 40

Measured IC50 ratio of CCCOc1ccc(S(=O)(=O)N2CC[C@@H](N(C)C)C2)cc1-c1nc2cc3ncn(Cc4ccc(F)cc4)c3cc2c(=O)[nH]1 : 70

Origin of the recorded values: ChEMBL document CHEMBL1133451
